PROTOCOL: chemical genetic growth profiling, strain panel (AID 1159580);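 further: tested at 20 µM; growth read once vehicle control cultures reached saturation at 30 °C; 1 = growth at the plate median or of vehicle wells; lower values mean less growth of the strain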
RECORDED CONDITIONS: S. cerevisiae deletion strains, growth OD, locus YDR388W, stronger effect = lower value
Among all 5,500 compounds or so, about 2,000 (36%) were called active. Another 18% or so got no clear call; they are omitted. The list shows a part of the results.
Reported values of normalized growth for individual entries
Format: numeric value only, no unit, no commentary.

These recorded examples may help you get a feel for the data.
MOLECULE | NUMERIC RESULT
COc1ccc(C(Cl)=C(c2ccc(OC)cc2)c2ccc(OC)cc2)cc1 | 1.03
Nc1nc2ncc(C(=O)O)nc2c(=O)[nH]1 | 1.02
O=C1CCCC2C3CC(CN12)[C@@H]1CCCCN1C3 (stereo partly specified) | 0.997
CCCc1occc(=O)c1/C=C/O | 0.964
CC(=O)O[C@@H]1CC2C(C)(C)C(=O)CC[C@]2(C)C2CC[C@]3(C)C(=CC(=O)O[C@H]3c3ccoc3)[C@@]21C (stereo partly specified) | 0.995

The recorded normalized growth for entry C=C[C@@H](C1=CC(=O)C(OC)=C(OC)C1=O)c1ccccc1 equals 0.827

Quick note, normalized growth for CCOP(=S)(OCC)SCn1c(=O)oc2cc(Cl)ccc21 landed at 0.994

Memo: COc1cc(C(=O)NCc2ccc(OCCN(C)C)cc2)cc(OC)c1OC , reported normalized growth: 0.988

So, C=CC(C)(O)CC/C=C(\C)CCC=C(C)C (stereo unspecified) ? Its normalized growth was 0.985

Sure, the documented normalized growth for CC(=O)O[C@H]1C[C@@H](OC(C)=O)C(C)(C)C2C[C@@H](OC(C)=O)[C@@]3(C)C4=CC(=O)O[C@@H](c5ccoc5)[C@]4(C)CCC3[C@]21C (stereo partly specified) is 0.999

In plain terms, C=C[C@](C)(O)CCC=C(C)C has a documented normalized growth of 1.01

In plain terms, C=C(CC)C(=O)c1ccc(OCC(=O)O)c(Cl)c1Cl has a documented normalized growth of 0.972

Lab note: CCN(CC)CCNC(=O)c1cc(S(C)(=O)=O)ccc1OC gave normalized growth of 1.02
